Procedure text: yeast display, Sf9 membrane polyspecificity reagent, FACS + sequencing; frameworks hold sequencing errors
Outcome measure: polyreactivity (PSR sort gate)

1) QVQLVESGGGLLQAGGSLRLSCAASGRIKDNGMGWYIKAPGKERELVAAITLSAGRTYYADSVKGRFTISRDNAKNTVYLQMNSLKPEDTAVYYCAAQAERYGYEYWGQGTQVTVSS
low polyreactivity
2) QVQLVESGGGLVQAGGSLRLSCAASGSIVWYNAMGWYRPAPGKERELVAAITWSGGSTYYADSVKGRFTISRDNAKNTVYLQMNSLKPEDTAVYYCAADVKRDRVWGGDYWGQGTQVTVSS
low polyreactivity
3) QVQLVEAGGGVVQAGGSLRLSCAASGIIFYPYALGWYRQAPGKERELVADITSGGGTNYADSVKGRFTISRDNAKNTVYLQMNSLKPEDTAVYDCAAEVRGYHWGTYYEFYYWGQGTQVTVSS
low polyreactivity

###

Procedure text: yeast display, Sf9 membrane polyspecificity reagent, FACS + sequencing; frameworks hold sequencing errors
Outcome measure: polyreactivity (PSR sort gate)

Example results:
1) QVQLVESGGGLVQAGGSLRLRCAASGLTVRNYAMGWYRQAPRKERDLVAAISSGGGSTYYADSVKGRFTISRDNAKNTVYLQMNSLKPEDTAVYYCAAKRHTSLYVYYYWGQGTQVTVSS
high polyreactivity
2) QVQLVESGGGLVQAGGSLRLSCAASGRTFVNYAMGWYRQAPGKERELVAAISGGGGTNYADSVKGRFTISRDNAKNTVYLHMNSLKPQDTAVYYCAADTNGYEFDYWGQGTLVTVSS
low polyreactivity
3) QVKLVESGGGLVQAGGSLRLSCAASGFTFSGYDMGWYRQAPGKERELVAGISSGGVSTTYADSVKGRFTISRDNAKNTVYLQMNSLIPEDTAVYYCNAEWTSFDWGQGTQVTVSS
low polyreactivity
4) QVQLGESGGGLVQAGGSLRLSCAASGRTFSYYAKGWNRPAPGKERELVGAISSTGGSTYYADSVKGRFTISRDNAKNTVYLQMNSLKPEDTAVYYCAARWYVLYYRGGYCGQGTQVTVSS
low polyreactivity

Please examine the following record next.
Input line: Entry under review: QVQLVESGGGLVQAGGSLRLSCAASGRTFGSYAMGWYRPAPGKERELVAGISWSGGITYYADSVKGRFTISRDNAKNSVYLQMNSLKPEDTAVYYCAADSVVWEMEYWGQGTQVTVSS . Reported polyreactivity (PSR sort gate)?
Output line: high polyreactivity

###

Procedure text: yeast display, Sf9 membrane polyspecificity reagent, FACS + sequencing; frameworks hold sequencing errors
Outcome measure: polyreactivity (PSR sort gate)

1) QVQLVESGGGLVQAGGSLRLSCAPSGRIFDYYAMGWYRQAPGKESELVAAISGSGGSTYYADSVKGRFTISRDNAKNTVYLQMNSLKPEHTAVYYCAYGYLYCYDYWGQGTQVTVSS
low polyreactivity
2) QVQLVESGGGLVQAGGSLRLSCAASGGTVTYNAMGWYRQAPGKERELVAAITNGGGSTYYADSVKGRFTISRDYAKNTVYLQMNSLKPEDTAVYYCAARWWYYYTEYDYWGQGTQVTVSS
low polyreactivity
3) QVQLLESGGGLVQAGGSLRLSCAASGAIFFIYVMGWYRQAPGKERELVAAISGSGGPTYYADSVKVRFTISRDNAKNTVFLQMNRLKPEDTAVYYCAARGYRGRMGYWGQGTQVTVSS
low polyreactivity
